The binders listed here are annotated with their OD 490/630 nm.
molecular target: T1, Ala mutant of TA0096, SEQ ID NO: 28; assay: ELISA, coated peptide
T1 peptide: EANMDDQWMQDEMEIGY
Response field accepts a number only; no unit should be typed.

Please review the following examples before continuing.
>  <binder>
E9 (antibody, V domains shown, Chicken variable regions in a mouse chimeric antibody (IgG1); also called anti-PAD4 antibody E9) VH: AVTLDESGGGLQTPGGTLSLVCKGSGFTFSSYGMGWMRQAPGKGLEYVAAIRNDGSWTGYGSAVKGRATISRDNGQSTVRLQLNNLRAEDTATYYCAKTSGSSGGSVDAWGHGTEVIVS VL: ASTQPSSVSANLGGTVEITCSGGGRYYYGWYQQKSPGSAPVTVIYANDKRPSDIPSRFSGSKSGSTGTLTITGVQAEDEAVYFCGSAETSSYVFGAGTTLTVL

>  <property.name>
OD 490/630 nm

>  <experimental.value>
2

$$$$
>  <binder>
G8 (antibody, V domains shown, Chicken variable regions in a mouse chimeric antibody (IgG1); also called anti-PAD4 antibody G8) VH: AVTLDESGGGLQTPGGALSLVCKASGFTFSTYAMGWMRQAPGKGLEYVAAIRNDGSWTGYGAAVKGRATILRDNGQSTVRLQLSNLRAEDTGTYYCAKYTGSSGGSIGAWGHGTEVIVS VL: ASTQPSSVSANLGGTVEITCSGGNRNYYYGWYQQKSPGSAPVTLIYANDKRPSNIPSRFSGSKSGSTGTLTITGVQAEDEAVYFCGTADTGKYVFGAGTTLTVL

>  <property.name>
OD 490/630 nm

>  <experimental.value>
1.94

$$$$

Please examine the following record next.
get_value(item= H7 (antibody, V domains shown, Chicken variable regions in a mouse chimeric antibody (IgG1); also called anti-PAD4 antibody H7) VH: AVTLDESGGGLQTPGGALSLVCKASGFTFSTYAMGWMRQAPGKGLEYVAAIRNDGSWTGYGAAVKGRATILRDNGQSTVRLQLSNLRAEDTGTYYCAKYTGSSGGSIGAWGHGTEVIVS VL: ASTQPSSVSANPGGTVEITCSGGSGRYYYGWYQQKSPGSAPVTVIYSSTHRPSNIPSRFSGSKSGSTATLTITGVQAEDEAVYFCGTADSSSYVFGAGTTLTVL , readout=OD 490/630 nm) returns 1.95
